system: Influenza A virus hemagglutinin (whole virus as assayed) (Influenza A virus H3N2 A/Texas/1977 (A/Texas/1/77)); experiment: competition ELISA; conditions: PBS, room temperature, […] (0.5-500 nM) […] (5 nM)
Observable: IC50 (µM)

# Chain Sequence, Unit String, Measured
rows = [
    ("AATTAACCCTCACTAAAGGGCTGAGTCTCAAAACCGCAATACACTGGTTGTATGGTCGAATAAGTTAA [BV02]", "µM", 0.055),
]

---

Attribute: relative binding affinity (IC50 ratio vs BV02) (IC50(BV02)/IC50)
system: Influenza A virus hemagglutinin (whole virus as assayed) (Influenza A virus H3N2 A/Texas/1977 (A/Texas/1/77)); assay: competition ELISA; settings: PBS, room temperature, […] (0.5-500 nM) […] (5 nM)
Observable: relative binding affinity (IC50 ratio vs BV02) (IC50(BV02)/IC50)

# Chain Sequence, Measured
data = [
    ("AATTAAGCCTGACTTAAGGGGTGAGTCTCAAAACCGCAATACACTCAGCCCTTTAGTGAGGGTTAATT [BV19j]", 0.071),
    ("GTCACTAAAGGGCTGAGTCAAACCGCCATACACTGGTTGTATGGCGGTTAAGTT [BV27j]", 0.089),
    ("AGATAAATGTCCGGGTTCGCTTCACTGATCAAACATAGACAGGTATAATTACTGCCTGAAGAAAATCC [S2]", 1),
    ("GGTAGTTATAGTATATGGAAGGGGCCCCCCCCCCCCCCCCGTGTCGTATGG [C7C]", 15.5),
    ("AACGCTCACTCCCCCAAGAACCCCCCCCCCCCTCCCCCCCCCCCCAGTGAGCGTT [BV45c]", 11.7),
    ("TCATTCTCAGTAAAGGGCTGAGAATTCAAACCGCAATACACTGGTAAAAAGTGCGGTTAAG [BV27p]", 0.133),
    ("AACGCTCACTCCCCCCCCCCCCCCCAAGAACCCCCCCCCCCCCCCAGTGAGCGTT [BV35s]", 7.45),
    ("AATTAACCCTCACTAAAGGGCTGAGTCTCAAAACCGCAATACACTGGTTGTACAACCAGTGTATTGCG [BV14]", 1.33),
    ("CTCACTAAAGGGCTGAGTCAAACCGCAATACACTGGTTGTATGGTCGGTTAAGTT [BV27c]", 0.771),
    ("TCATTCTCAGTAAAGGGCTGAGTCAAACCGCAATACACTGGTAAAAAGTGCGGTTAGCGAG [BV27o]", 0.116),
    ("TCCTCAGCAAAATAGCGGGGCTGAGTCAAACCGCAATACACTGGTAAAAAGTGCGGTTAAG [BV37b]", 1),
    ("GTTTTGAGACTCAGCCCGGGCTGAGTCTCAAAACCGCAATACACTGGTTGTACAACCAGTGTATTGCG [BV13]", 0.084),
    ("AATTAACCCTCACTAAAGGGCTGAGTCTCAAAACGTTTTGAGACTCAGCCCTTTAGTGAGGGTTAATT [BV11]", 0.124),
    ("TCCTCAGTAAAGGGCTGAGTCAAACCGCAATACACTGGTAAAAAGTGCGGTTAAG [BV27h]", 0.092),
    ("GGCTGAGTCAAACCGCCTAACACTGGTACAATGGCGGTTAAGTT [BV27m]", 0.012),
    ("GGTAGTTATAGTATATGGAAGGGGGTGTCGTATGG [C7-35M]", 0.549),
    ("CTCACTAAAGGGCTGAGTCTCAAAACCGCAATACACTCAGCCCTTTAGTGAG [BV19g]", 0.132),
    ("AACGCTCACTCCCCCAAGAACCCCCCCCCCCTGACCCCCCCCCCCAGTGAGCGTT [BV45d]", 10.7),
    ("TTCCTCAGCAAAATAGCGGGGCTGAGCAACCGCAATACACTGGTAAAAAGTGCGGTTAAGA [BV37a]", 0.874),
    ("CTCCTCCTCCTCCTCCTCCTCCTCCTCCTC [BV24a]", 0.08),
    ("CTCACTAAAGGGCTGAGTCAAACCGCAATACACTGGTTGTATGGTCGAATAAGTT [BV27]", 0.116),
    ("AAATAAGCCTGACTTAACGGGTGACTCTCAAAACCGCAATACACTCAGCCCTTTAGTGAGGGTTAATT [BV19k]", 0.932),
    ("CACCACCACCACCACCACCACCACCACCAC [BV24b]", 0.05),
    ("CTCACTAAAGCGCTGAGTCCCCCCCCCCCCCCCCCCCACTCAGCGCTTTAGTGAG [BV35]", 1.01),
    ("AACGCTCACTCCCCCCCCCCCCCCAAGAAGAACCCCCCCCCCCCCAGTGAGCGTT [BV42b]", 14.9),
    ("CCCCCCCCCCCCCCCCCGCGCTGAGTCCCCCCCCCCCCCCCCCCCACTCAGCGCG [BV35c]", 1.16),
    ("TCTCAGCCCCCGCTGAGTCAAAGCGCACCCCCCCCCCCCCCCCCCCTGCGCTTAA [BV37f]", 0.495),
    ("AATTAACCCTCACTAAAGGGCTCTCACTCAAAACCGCAATACACTCAGCCCTTTAGTGAGGGTTAATT [BV19a]", 0.574),
    ("TCCTCAGCAAAATAGCGGGGCTGAGTCTCAAACCGCAATACACTGGTAAAAAGTGCGGTTA [BV37c]", 7.56),
    ("CCCCCCCCCGCGCTGAGTCCCCCCCCCCCCCCCCCCCACTCAGCGCGCCCCCCCC [BV35b]", 0.938),
    ("AACGCTCACTCCCCCCCCCCCCCCCCCACCCCCCCCCCCCCCCCCAGTGAGCGTT [BV35p]", 9.88),
    ("GGCTCACTAAAGGGCTGAGTCTCAAAACCGCAATACACTCAGCCCTTTAGTGAGGGTTAATTTTAAAGG [BV19c]", 0.086),
    ("AACGCTCACTCCCCCACCCCCCCACCCCCCCACCCCCCCACCCCCAGTGAGCGTT [BV35m]", 6.54),
    ("AATTAACCCTCACTAAAGGGCTGAGTCTCAAAACCGCAATACACTGGTTGTATGGTCGAATAAGTTAA [BV02]", 1),
]

---

tested on: Influenza A virus hemagglutinin (whole virus as assayed) (Influenza A virus H3N2 A/Texas/1977 (A/Texas/1/77)); assay: competition ELISA; conditions: PBS, room temperature, […] (0.5-500 nM) […] (5 nM)
Each entry below carries its reported relative binding affinity (IC50 ratio vs BV02) (IC50(BV02)/IC50).
Observable: relative binding affinity (IC50 ratio vs BV02) (IC50(BV02)/IC50)

# Chain Sequence, Measured
rows = [
    ("TCCTCAGTAAAGGGCTGAGTCAAAACCGCAATACACTGGTAAAAAGTGCGGTTAG [BV27i]", 0.065),
    ("AATTAACCCTCACTAAAGGGCTGAGTCTCAAAACCGCAATACACTGGTTGTATGTTAATTGGGAGTGA [BV18]", 7.26),
    ("GCTGAGTCTCAAAACCGCAATACACTGGTT [BV26]", 0.792),
    ("TCCTCAGTAAAATAGCGGGGCTGAGTCAAACCGCAATACACTGGTAAAAAGTGCGGTTAAG [BV27n]", 0.151),
    ("GTAAATACCTCTGAAATAATATCTCCATGACAGAGTAAGTCCATGAGAACTGACGATGCAAGTCTGTC [S3]", 0.7),
    ("AACGCTCACTCCCCCCCCCCCACCCCCCCCCCCACCCCCCCCCCCAGTGAGCGTT [BV35o]", 9.92),
    ("AACGCTCACTACCCCCCCCCCAACCCCCCCCCCAACCCCCCCCCCAGTGAGCGTT [BV45b]", 15.1),
    ("AATTAACCCTCCTAAAGGGTCTGAGTCTCAAAACCGCAATACACTCAGCCCTTTAGTGAGGGTTAATT [BV19l]", 0.004),
]

---

tested on: Influenza A virus hemagglutinin (whole virus as assayed) (Influenza A virus H3N2 A/Texas/1977 (A/Texas/1/77)); assay: competition ELISA; details: PBS, room temperature, […] (0.5-500 nM) […] (5 nM)
relative binding affinity (IC50 ratio vs BV02) (IC50(BV02)/IC50): recorded values
Observable: relative binding affinity (IC50 ratio vs BV02) (IC50(BV02)/IC50)

# Chain Sequence, Measured
measured = [
    ("AACGCTCACTAACCCCCCCCCCACCCCCCCCCCACCCCCCCCCCAAGTGAGCGTT [BV45]", 14.2),
    ("AATTAACCCTCACTAAAGCCGACTCACTCAAAACCGCAATACACTCAGCCCTTTAGTGAGGGTTAATT [BV19b]", 1.26),
    ("GTCACTAAAGGGCTGAGTCAAACCGCAATACACTGGTTGTATGGTCGGTTAAGTT [BV27f]", 0.75),
    ("GAAATAACCTCTGATAAAAAATTTCTCCATAGCGAAGTAAGTCCATAAGGAATGCCGATTCGGCTTGC [S1]", 1.1),
    ("TCCTCAGTAAAGGGCTGAGAAACCGCAATACACTGGTAAAAAGTGCGGTTAAGTT [BV27g]", 0.093),
    ("AATTAACCCTCACTAAAGGGCTGAGTCTCAAAACCGCAATACACTCAGCCCTTTAGTGAGGGTTAATT [BV19]", 1.34),
    ("AACGCTCACTCCCAAGAAGAAGAACCCCCCCCCCCCCCCCAGTGAGCGTT [BV43b]", 8.01),
    ("AATTAACGCTCACTAAAGCCCCACCCACCCACCCACCCACCCACCCACCCCTTTAGTGAGCGTTAATT [BV36b]", 0.611),
]
